Measurement Target: T1, recombinant human GPC1 protein (R&D Systems) (human, UniProt P35052 24-530)
T1 construct: Bought recombinant protein (R&D Systems); also called human GPC-1 antigen; Glypican-1
T1 sequence: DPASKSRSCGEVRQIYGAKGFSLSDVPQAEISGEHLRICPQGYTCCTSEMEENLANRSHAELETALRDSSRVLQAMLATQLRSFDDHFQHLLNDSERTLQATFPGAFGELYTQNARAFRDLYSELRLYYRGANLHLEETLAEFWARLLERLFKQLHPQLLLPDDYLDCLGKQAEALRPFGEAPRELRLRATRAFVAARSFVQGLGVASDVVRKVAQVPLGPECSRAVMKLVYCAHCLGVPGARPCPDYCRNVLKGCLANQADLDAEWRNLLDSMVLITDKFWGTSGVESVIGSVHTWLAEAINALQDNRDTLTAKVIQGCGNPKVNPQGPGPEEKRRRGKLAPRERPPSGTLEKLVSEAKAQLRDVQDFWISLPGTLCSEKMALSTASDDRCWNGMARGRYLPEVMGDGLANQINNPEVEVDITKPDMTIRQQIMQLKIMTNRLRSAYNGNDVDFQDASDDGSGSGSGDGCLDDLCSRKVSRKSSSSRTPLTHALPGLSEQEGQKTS
Method Description: SPR (Biacore 8K); antibody captured by anti-human IgG (Fc) on a CM5 chip, recombinant human GPC1 flowed over

{"Binder": "humanized anti-GPC1 monoclonal antibody clone T10 (antibody, human IgG4 S228P, kappa, V domains shown, IgG) VH: QVQLVQSGAEVKKPGASVKVSCKASGYTFTGYYMHWVRQAPGQGLEWMGEINPSTGDTTYNQKFKARVTMTRDTSTSTVYMELSSLRSEDTAVYYCAREKRDDGVFAYWGQGTLVTVSS VL: EIVLTQSPSTLSASVGDRVTITCRASQSISSWLAWYQQIPGKAPRILISSASILQSGAPSRFSGSGFGTDFTLTISSVQPEDFATYYCQQAKSYPLTFGGGTKLEIKR", "Unit Symbol": "M⁻¹ s⁻¹", "kon": 199000}
{"Binder": "humanized anti-GPC1 monoclonal antibody clone T11 (antibody, human IgG4 S228P, kappa, V domains shown, IgG) VH: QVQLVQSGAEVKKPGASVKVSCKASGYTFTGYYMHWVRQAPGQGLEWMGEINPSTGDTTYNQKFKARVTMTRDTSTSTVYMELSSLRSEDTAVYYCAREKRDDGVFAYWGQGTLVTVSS VL: AIRMTQSPSSLSASVGDRVTITCRASRSISTYLHWYQQKAGKAPKLLIYSAYNLQSGVPSRFSGSGSGTDFTLTISSLQPEDFATYYCQQSYSTPYTFGQGTKVEIKR", "Unit Symbol": "M⁻¹ s⁻¹", "kon": 186000}
{"Binder": "humanized anti-GPC1 monoclonal antibody clone T33 (antibody, human IgG4 S228P, kappa, V domains shown, IgG) VH: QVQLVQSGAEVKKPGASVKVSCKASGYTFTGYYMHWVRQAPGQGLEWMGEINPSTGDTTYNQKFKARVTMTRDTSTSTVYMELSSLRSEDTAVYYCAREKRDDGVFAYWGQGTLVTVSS VL: DVVMTQSPATLSVPPGDRATLSCRASQSVSSRLAWYQQKPGQAPKLLIYGASTRATGIPARFSGSWSGTEFTLTVSSLQSEDSAVYYCQQYNDWPRYTFGQGTKLEIKR", "Unit Symbol": "M⁻¹ s⁻¹", "kon": 160000}
{"Binder": "humanized anti-GPC1 antibody (clone T2) (antibody, human IgG4 S228P, kappa, V domains shown, IgG; also called humanized anti-GPC1 antibody (T2); unlabeled antibody) VH: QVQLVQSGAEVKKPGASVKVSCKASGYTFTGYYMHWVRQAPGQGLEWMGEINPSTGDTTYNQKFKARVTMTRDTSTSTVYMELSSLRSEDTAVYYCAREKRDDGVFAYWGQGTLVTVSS VL: DIVMTQSPSFLSASVGDRVTITCRASQGISSYLVWYQQKPGKPPKLLIYSASVLQSGVPSRFSGRGYGTDFTLTISSLQPEDFATYYCQQSFSIPPVTFGGGTKVEIKR", "Unit Symbol": "M⁻¹ s⁻¹", "kon": 240000}
{"Binder": "humanized anti-GPC1 monoclonal antibody clone T57 (antibody, human IgG4 S228P, kappa, V domains shown, IgG) VH: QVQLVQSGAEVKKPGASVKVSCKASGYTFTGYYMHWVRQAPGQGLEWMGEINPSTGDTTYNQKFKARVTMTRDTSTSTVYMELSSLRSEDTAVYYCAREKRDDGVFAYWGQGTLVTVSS VL: EIVMTQSPSSLSASVGDRVTISCRTSQTIRHYLNWYQQKPGKAPKLLIYDASNLKTGVPSRFSGSGSGTSFTLTISSLQPDDFATYYCQQSYSTPRTFGQGTKVEIKR", "Unit Symbol": "M⁻¹ s⁻¹", "kon": 132000}
{"Binder": "humanized anti-GPC1 monoclonal antibody clone T34 (antibody, human IgG4 S228P, kappa, V domains shown, IgG) VH: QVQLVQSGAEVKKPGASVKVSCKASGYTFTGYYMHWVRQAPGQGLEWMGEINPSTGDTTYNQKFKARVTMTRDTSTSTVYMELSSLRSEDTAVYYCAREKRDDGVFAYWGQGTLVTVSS VL: VIWMTQSPSSVSASVGDRVTITCRASQAINGWLAWYQQKPGKAPRILIYSASTLQTGAPSRFSGSGFGTDFTLTISSVQPEDFATYYCQQAKSYPLTFGGGTKVEIKR", "Unit Symbol": "M⁻¹ s⁻¹", "kon": 172000}
{"Binder": "humanized anti-GPC1 monoclonal antibody clone T8 (antibody, human IgG4 S228P, kappa, V domains shown, IgG) VH: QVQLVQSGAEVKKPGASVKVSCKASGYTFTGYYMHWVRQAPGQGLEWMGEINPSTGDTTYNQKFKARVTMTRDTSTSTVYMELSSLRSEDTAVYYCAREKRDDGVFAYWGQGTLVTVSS VL: EIVMTQSPSSVSASVGDRVTITCRTSQSISSYLNWYQLRPGRAPKLLIYAASNLQSGVPSRFSGSGFGTDFTLTISSVQPEDFATYYCQQAKSYPLTFGGGTKVDIKR", "Unit Symbol": "M⁻¹ s⁻¹", "kon": 234000}
{"Binder": "humanized anti-GPC1 monoclonal antibody clone T22 (antibody, human IgG4 S228P, kappa, V domains shown, IgG) VH: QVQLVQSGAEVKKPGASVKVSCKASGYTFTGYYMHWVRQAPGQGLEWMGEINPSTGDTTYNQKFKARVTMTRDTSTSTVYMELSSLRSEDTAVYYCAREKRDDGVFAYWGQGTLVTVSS VL: AIQMTQSPASLSASLGDRITITCRTSQTVAGYLNWYQQTPGNAPKLLIYSASNLQSGVPSRFSGSGSGRDFSLTISSLQSEDSATYYCQHSYSTPYTFGQGTKVEIKR", "Unit Symbol": "M⁻¹ s⁻¹", "kon": 232000}
{"Binder": "humanized anti-GPC1 monoclonal antibody clone T36 (antibody, human IgG4 S228P, kappa, V domains shown, IgG) VH: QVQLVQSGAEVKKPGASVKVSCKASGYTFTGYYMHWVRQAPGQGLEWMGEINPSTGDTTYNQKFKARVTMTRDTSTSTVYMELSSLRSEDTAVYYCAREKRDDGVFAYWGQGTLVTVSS VL: NIQMTQSPSSLSASVGDRVTITCQASQDISNYLNWYQQRPGKAPQLLIYGASNLERGVPSRFSGSGFGTDFTLTISSVQPEDFATYYCQQAKSYPLTFGGGTKVEIKR", "Unit Symbol": "M⁻¹ s⁻¹", "kon": 231000}
{"Binder": "human/mouse chimeric anti-GPC1 antibody (clone 01a033) (antibody, human IgG4 S228P, kappa, V domains shown, also called chimeric mouse antibody (01a033); anti-GPC-1 chimeric antibody (01a033)) VH: QVQLKQSGPELVKPGASVKISCKASGYSFTGYYMHWVKQSPEKSLEWIGEINPSTGDTTYNQKFKAKATLTVDKSSSTAYMQLKSLTSEDSAVYYCAREKRDDGVFAYWGQGTLVTVSS VL: DIVMSQSPKSMSMSVGERVALSCKASENVGTYVSWYQQKPEQSPKLLIYGASNRYTGVPDRFTGSGSATDFTLTISSVQAEDLADYYCGQSYSYPLTFGAGTKLELKR", "Unit Symbol": "M⁻¹ s⁻¹", "kon": 302000}
